# measured-on: HIV Env, isolate Du156.12 (HIV)
# assay-method-text: cell-based or functional assay
Recorded IC80 (µg/ml) with constrains values for a group of binders are listed next.
test-readout: IC80 (µg/ml) with constrains (µg/mL)

binder: ePGDM13 (antibody, V domains shown) VH: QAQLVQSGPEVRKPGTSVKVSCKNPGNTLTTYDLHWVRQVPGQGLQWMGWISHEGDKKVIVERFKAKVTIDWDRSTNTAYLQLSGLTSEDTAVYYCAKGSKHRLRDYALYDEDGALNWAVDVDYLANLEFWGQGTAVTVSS VL: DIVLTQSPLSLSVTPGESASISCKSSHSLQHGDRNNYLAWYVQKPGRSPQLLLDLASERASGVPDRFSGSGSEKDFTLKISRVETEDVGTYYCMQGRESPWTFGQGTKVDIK
test-readout: IC80 (µg/ml) with constrains
value-reported: 0.026
//
binder: ePGDM5 (antibody, V domains shown) VH: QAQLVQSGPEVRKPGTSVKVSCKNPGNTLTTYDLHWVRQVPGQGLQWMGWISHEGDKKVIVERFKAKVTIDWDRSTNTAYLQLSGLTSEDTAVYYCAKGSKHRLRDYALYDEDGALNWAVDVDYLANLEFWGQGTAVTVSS VL: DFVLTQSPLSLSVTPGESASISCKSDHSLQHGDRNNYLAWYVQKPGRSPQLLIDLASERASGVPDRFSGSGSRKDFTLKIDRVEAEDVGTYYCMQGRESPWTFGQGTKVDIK
test-readout: IC80 (µg/ml) with constrains
value-reported: 0.026
//
binder: ePGDM9 (antibody, V domains shown) VH: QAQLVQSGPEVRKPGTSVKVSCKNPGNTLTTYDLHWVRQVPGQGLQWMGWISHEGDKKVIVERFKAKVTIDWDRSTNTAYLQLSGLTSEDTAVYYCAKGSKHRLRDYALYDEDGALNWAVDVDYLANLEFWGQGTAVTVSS VL: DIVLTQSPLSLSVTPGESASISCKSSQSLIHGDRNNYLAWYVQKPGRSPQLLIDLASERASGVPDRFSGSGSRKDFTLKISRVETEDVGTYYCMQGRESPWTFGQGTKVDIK
test-readout: IC80 (µg/ml) with constrains
value-reported: 0.016
